Data origin, for the record: ChEMBL document CHEMBL1201862

System: SNB-19
procedureDetails: NCI tumour cell line growth inhibition, 48 h
Active and inactive are the calls of the source. No stated cut-off is given here; in the data, active = GI50 up to about 1.1 µM and inactive = higher.
measurementLabel: GI50

Worked cases, GI50 given:
{"molecule": "CC(C)=CCN1CC(C)C(=O)Nc2ccccc21 (stereo not drawn)", "measurementLabel": "GI50", "measured": "> 100 µM (inactive)"}
{"molecule": "Cc1c2cnccc2c(C)c2c1c1ccccc1n2CCOC(=O)c1ccccc1", "measurementLabel": "GI50", "measured": "10.7 µM (inactive)"}
{"molecule": "O=C(/C=C1\\Nc2ccccc2N=C1NC12CC3CC(CC(C3)C1)C2)c1ccc(Br)cc1", "measurementLabel": "GI50", "measured": "> 10 µM (inactive)"}
{"molecule": "COC(=O)c1ccc(CS(=O)(=O)c2ccccc2)cc1", "measurementLabel": "GI50", "measured": "> 100 µM (inactive)"}
{"molecule": "COc1cccc(Cc2c3cc(OC)ccc3cc[n+]2C)c1", "measurementLabel": "GI50", "measured": "43.1 µM (inactive)"}
{"molecule": "Cc1ccc2nc(N)[nH]c(=O)c2c1Sc1ccncc1", "measurementLabel": "GI50", "measured": "> 100 µM (inactive)"}
{"molecule": "Cc1cc2c(c(S(=O)(=O)c3ccc(Cl)cc3[N+](=O)[O-])c1)NCCC2", "measurementLabel": "GI50", "measured": "> 100 µM (inactive)"}

Now for a further molecule.
Inquiry: Report GI50, nothing else, for this molecule: O=C(/C=C/C=C/c1ccccc1)CCc1ccccc1
Reply text: 62.1 µM (inactive)

====

System: K562
procedureDetails: NCI tumour cell line growth inhibition, 48 h
The source made the active and inactive calls. Cut-off read from the data, not from the text of the source: active = GI50 up to about 1.1 µM and inactive = higher.
In this exercise, the only acceptable responses are Y = active, N = inactive

Here are 3 compounds together with their reported answers.
{"compound": "O=C1CCCC(=O)N1CCc1c[nH]c2ccccc12", "targetOrSystem": "K562", "category": "N"}
{"compound": "O=C1CC(=O)c2c(O)cc(O)c(c2O)-c2c(ccc(O)c2O)C2=CC(=O)c3c(O)cc(O)c(c3O2)-c2c1ccc(O)c2O.O=C1CC2(O)Oc3c1c(O)cc(O)c3-c1c(ccc(O)c1O)-c1cc(=O)c3c(O)cc(O)c(c3o1)-c1c2ccc(O)c1O", "targetOrSystem": "K562", "category": "N"}
{"compound": "CCOC(=O)CCSc1nc2ccc(I)cc2c(=O)n1Cc1ccccc1", "targetOrSystem": "K562", "category": "N"}

Inquiry: In this assay, the call recorded for COc1ccc(NC(=O)N(C)CC2(O)CCC(C(C)(C)C)CC2)cc1 (stereo not drawn) was what?
Reply text: N

Inquiry: In this assay, the call recorded for Cc1cccc(C(C)C)c1N1C(=O)C(=O)C(c2nc3ccccc3o2)C(=O)C1=O was what?
Reply text: N

Inquiry: In this assay, the call recorded for Cc1ccc2nc(N)[nH]c(=O)c2c1Sc1ccncc1 was what?
Reply text: N

Inquiry: In this assay, the call recorded for COc1ccc(/C=N/Nc2nnc3c(n2)c2ccccc2c2nn(-c4ccccc4Cl)nc23)cc1 was what?
Reply text: N

====

Tested on: U-251
procedureDetails: NCI tumour cell line growth inhibition, 48 h
Activity calls are given as the source filed them. No stated cut-off is given here; in the data, active = GI50 up to about 1.1 µM and inactive = higher.
measurementLabel: GI50

{"molecule": "COc1ccc2c(CN3CCCCC3CO)cc3cc(OC)c(OC)cc3c2c1 (centres undefined)", "targetOrSystem": "U-251", "GI50": "5.85 µM (inactive)"}
{"molecule": "COC(=O)C1=CC2OC13CC1CCC3(C2=O)C1(C)C (centres undefined)", "targetOrSystem": "U-251", "GI50": "12.9 µM (inactive)"}
{"molecule": "COc1ccc(NC(=O)N(C)CC2(O)CCC(C(C)(C)C)CC2)cc1 (centres undefined)", "targetOrSystem": "U-251", "GI50": "> 100 µM (inactive)"}

Inquiry: Report GI50, nothing else, for this molecule: O=C(c1ccc(NCN2C(=O)CCC2=O)cc1)c1ccc(NCN2C(=O)CCC2=O)cc1
Reply text: > 100 µM (inactive)
